# Protocol summary: Human pharmacokinetic (PK) crossover study of caffeine versus d9-caffeine; plasma metabolites paraxanthine / paraxanthine-d6
# Type: in vivo
# Measurement setup: human, plasma, plasma metabolite, arithmetic mean; single dose 0.26 mmol caffeine (paraxanthine) or 0.26 mmol d9-caffeine (paraxanthine-d6), healthy adults
Quantity kind: Tmax (h)

P = [2H]C([2H])([2H])n1c(=O)[nH]c2ncn(C([2H])([2H])[2H])c2c1=O
Q = Cn1c(=O)[nH]c2ncn(C)c2c1=O
Task for the reader: decide whether P or Q has the larger Tmax. Answer format: the label of the selected item.
P
(P: 21.1 h, Q: 8.22 h)

----------
# Protocol summary: Human pharmacokinetic (PK) crossover study of caffeine versus d9-caffeine; plasma metabolites paraxanthine / paraxanthine-d6
# Type: in vivo
# Measurement setup: human, plasma, plasma metabolite, arithmetic mean; single dose 1.29 mmol caffeine (paraxanthine) or 1.29 mmol d9-caffeine (paraxanthine-d6), healthy adults
Quantity kind: Tmax (h)

a = Cn1c(=O)[nH]c2ncn(C)c2c1=O [Paraxanthine, paraxanthine]
b = [2H]C([2H])([2H])n1c(=O)[nH]c2ncn(C([2H])([2H])[2H])c2c1=O [Paraxanthine-d6, paraxanthine-d6]
Task for the reader: decide whether a or b has the larger Tmax. Answer format: the label of the selected item.
b
